TESTED SYSTEM: A1 receptors of the SA node (Cavia porcellus, UniProt P47745)
Construct: perfused hearts from female Sprague-Dawley guinea pigs in an isolated Langendorff heart preparation
Sequence (P47745 1-326): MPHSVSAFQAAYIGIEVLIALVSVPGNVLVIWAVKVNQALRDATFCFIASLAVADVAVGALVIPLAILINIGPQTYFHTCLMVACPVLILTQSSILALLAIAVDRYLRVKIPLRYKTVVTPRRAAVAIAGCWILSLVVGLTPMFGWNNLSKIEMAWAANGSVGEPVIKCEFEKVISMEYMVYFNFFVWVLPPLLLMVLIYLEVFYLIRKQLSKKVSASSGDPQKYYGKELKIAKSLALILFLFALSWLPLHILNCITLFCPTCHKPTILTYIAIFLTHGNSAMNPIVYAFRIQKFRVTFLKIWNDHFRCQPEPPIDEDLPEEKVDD
ASSAY METHOD TEXT: SQ (stimulus to Q interval) prolongation in isolated perfused heart (Langendorff preparation)
CONDITION INFO: isolated perfused guinea pig heart; concentration for half-maximal prolongation of stimulus to Q interval; read-out: SQ Prolongation (A1) ED50
Procedure: Assays of the cardiovascular potency of the above compounds at the A1 receptors of the SA node and at the A2 receptor of the coronary artery employed perfused hearts from female Sprague-Dawley guinea pigs in an isolated Langendorff heart preparation. […] The concentration of test compound required to produce a half-maximal increase in coronary flow is determined. […] The concentration of test compound required to produce a half-maximal prolongation of stimulus to Q interval is determined. […]
REPORTED METRIC: pEC50
As a rule, pEC50 stands for the negative log10 of the concentration, concentration in M.

Nc1nc(OC2CCCC2)nc2c1ncn2[C@@H]1O[C@H](CO)[C@@H](O)[C@H]1O [Example 3, 2-Cyclopentyloxyadenosine] :: 4.10
CCNC(=O)[C@H]1O[C@@H](n2cnc3c(N)nc(OCCc4ccccc4)nc32)[C@H](O)[C@@H]1O [Example 22] :: 4.83
Nc1nc(OCCCCc2ccccc2)nc2c1ncn2[C@@H]1O[C@H](CO)[C@@H](O)[C@H]1O [Example 20, 2-(4-phenyl-1-butoxy)adenosine] :: 5.13
Nc1nc(OCCC2CCCCC2)nc2c1ncn2[C@@H]1O[C@H](CO)[C@@H](O)[C@H]1O [Example 5, 2-(2-Cyclohexylethoxy)adenosine] :: 5.06

Lab book: pEC50 of CC[C@H](COc1nc(N)c2ncn([C@@H]3O[C@H](CO)[C@@H](O)[C@H]3O)c2n1)c1ccccc1 [Example 19, 2-[(2S)-phenyl-1-butoxy]adenosine] noted as 4.56

Item: Nc1nc(OCCc2ccsc2)nc2c1ncn2[C@@H]1O[C@H](CO)[C@@H](O)[C@H]1O [Example 14, 2-[2-(3-thienyl)ethoxy]adenosine] | pEC50: 4.73

Just so you know, measured pEC50 for Nc1nc(OC2CCCCC2)nc2c1ncn2[C@@H]1O[C@H](CO)[C@@H](O)[C@H]1O [Example 4, 2-Cyclohexyloxyadenosine] came out at 4.00

Item: CC(COc1nc(N)c2ncn([C@@H]3O[C@H](CO)[C@@H](O)[C@H]3O)c2n1)c1ccccc1 (stereo partly drawn) [Example 17, 2-(2-phenyl-1-propoxy)adenosine] | pEC50: 4.28

Consider Nc1nc(OCCCC2CCCCC2)nc2c1ncn2[C@@H]1O[C@H](CO)[C@@H](O)[C@H]1O [Example 23, 2-(3-cyclohexyl)propoxyadenosine] . Its measured pEC50 is 5.43

###

TESTED SYSTEM: A2 receptor of the coronary artery (Cavia porcellus)
Construct: perfused hearts from female Sprague-Dawley guinea pigs in an isolated Langendorff heart preparation; from tissue; host or cells: isolated perfused guinea pig heart (Langendorff), coronary vasculature
Sequence (P46616 whole entry, the tested form may be a part): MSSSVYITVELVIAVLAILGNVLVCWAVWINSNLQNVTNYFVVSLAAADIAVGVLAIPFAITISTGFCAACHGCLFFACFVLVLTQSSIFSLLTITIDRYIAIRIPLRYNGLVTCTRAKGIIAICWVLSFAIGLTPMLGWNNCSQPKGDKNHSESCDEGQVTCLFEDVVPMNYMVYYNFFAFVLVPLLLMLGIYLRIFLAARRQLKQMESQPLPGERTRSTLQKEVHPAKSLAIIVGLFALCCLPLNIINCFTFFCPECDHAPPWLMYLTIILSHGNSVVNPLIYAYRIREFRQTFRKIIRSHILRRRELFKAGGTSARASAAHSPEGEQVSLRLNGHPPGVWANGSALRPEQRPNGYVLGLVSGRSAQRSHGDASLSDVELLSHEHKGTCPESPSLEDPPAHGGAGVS
ASSAY METHOD TEXT: Coronary flow increase in isolated perfused heart (Langendorff preparation)
Design: species or system guinea pig (female Sprague-Dawley)
CONDITION INFO: isolated perfused guinea pig heart; concentration for half-maximal increase in coronary flow; stepwise infusion every 5 minutes; read-out: Coronary Blood Flow Increase (A2) EC50
The compounds listed here are annotated with their log10 of EC50.
All values: base-10 log of EC50 in µM.

Nc1nc(OCc2ccccc2)nc2c1ncn2[C@@H]1O[C@H](CO)[C@@H](O)[C@H]1O :: -0.38
COc1ccc(CCOc2nc(N)c3ncn([C@@H]4O[C@H](CO)[C@@H](O)[C@H]4O)c3n2)cc1 [Example 10, 2-[2-(4-methoxyphenyl)ethoxy]adenosine] :: -2.85
Cc1ccccc1CCOc1nc(N)c2ncn([C@@H]3O[C@H](CO)[C@@H](O)[C@H]3O)c2n1 [Example 11, 2-[2-(2-methylphenyl)ethoxy]adenosine] :: -2.42
CC[C@H](COc1nc(N)c2ncn([C@@H]3O[C@H](CO)[C@@H](O)[C@H]3O)c2n1)c1ccccc1 [Example 19, 2-[(2S)-phenyl-1-butoxy]adenosine] :: -1.50
COc1cccc(CCOc2nc(N)c3ncn([C@@H]4O[C@H](CO)[C@@H](O)[C@H]4O)c3n2)c1 [Example 9, 2-[2-(3-methoxyphenyl)ethoxy]adenosine] :: -2.59

For COc1ccccc1CCOc1nc(N)c2ncn([C@@H]3O[C@H](CO)[C@@H](O)[C@H]3O)c2n1 [Example 8, 2-[2-(2-methoxyphenyl)ethoxy]adenosine] the compound record lists log10 of EC50 as -1.49

The recorded log10 of EC50 for `Nc1nc(OCCCc2ccccc2)nc2c1ncn2[C@@H]1O[C@H](CO)[C@@H](O)[C@H]1O` is -1.21

Documented log10 of EC50 of CC(COc1nc(N)c2ncn([C@@H]3O[C@H](CO)[C@@H](O)[C@H]3O)c2n1)c1ccccc1 (some centres unmarked) : -2.05

// `CCNC(=O)[C@H]1O[C@@H](n2cnc3c(N)nc(OCCc4ccccc4)nc32)[C@H](O)[C@@H]1O` : log10 of EC50 value = -2.89

So for `Nc1nc(OCCc2ccccc2)nc2c1ncn2[C@@H]1O[C@H](CO)[C@@H](O)[C@H]1O` , the logged log10 of EC50 turned out to be -2.55

Entry `Nc1nc(OC2CCCCC2)nc2c1ncn2[C@@H]1O[C@H](CO)[C@@H](O)[C@H]1O` ; log10 of EC50 = -0.18

The recorded log10 of EC50 for entry Nc1nc(OCCc2ccc(F)cc2)nc2c1ncn2[C@@H]1O[C@H](CO)[C@@H](O)[C@H]1O [Example 2, 2-[2-(4-fluorophenyl)ethoxy]adenosine] equals -3.05

Reported log10 of EC50 ( `COc1cc(CCOc2nc(N)c3ncn([C@@H]4O[C@H](CO)[C@@H](O)[C@H]4O)c3n2)cc(OC)c1OC` ) = -1.66

`Nc1nc(OC2CCCC2)nc2c1ncn2[C@@H]1O[C@H](CO)[C@@H](O)[C@H]1O` has a reported log10 of EC50 of -1.04
